Target: truncated mouse Mcl-1 (induced myeloid leukemia cell differentiation protein), 151 N-terminal and 23 … (mouse, UniProt P97287 152-308)
Sequence (P97287 other isoform, or with tags, fused parts or gaps): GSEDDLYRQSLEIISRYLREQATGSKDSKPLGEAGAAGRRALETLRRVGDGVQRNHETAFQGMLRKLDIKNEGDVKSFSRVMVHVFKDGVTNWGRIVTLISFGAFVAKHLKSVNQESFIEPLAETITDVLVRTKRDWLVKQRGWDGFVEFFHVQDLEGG
Assay: fluorescence kinetics after manual mixing; Mcl-1 and PUMA solutions manually mixed at nanomolar concentrations, fluorescence followed; fit to a model with association and dissociation
Settings: both partners purified
property.measured: Kd (nM)
// note: answer is a bare numeric in nM

Value of Kd reported for the binder Ac-VEEEEWAREIGAQLRRIADDLNAQYERRRQEEQH-NH2 (peptide, UniProt Q99ML1 128-161, looked up) [Mouse PUMA peptide, residues 128-161, M144I, N-terminal acetylation and C-terminal amidation] is 0.1

Hey, just so you know, these numbers are from paper PMC3776562.
